Recorded ring closure, overall yield values for a group of compounds are listed next.
Test: on-resin side-chain-to-N-terminus lactamisation (lanthionine D-half alpha-COOH + N-terminal amine); PyAOP 5 eq, HOAt 5 eq, DIPEA 10 eq, after TBAF (Teoc/TMSE) and piperidine (Fmoc) removal; NovaSyn TGT low-loading resin
Settings: the molecule shown is the open-chain precursor, 16-membered ring, DMF, 60.0 °C, 3.1 h
assay.readout: ring closure, overall yield (%)

1) *OC(=O)[C@H](C)NC(=O)[C@H](CSC[C@@H](N)C(=O)O)NC(=O)[C@H](CC(C)C)NC(=O)[C@H](CSC(c1ccccc1)(c1ccccc1)c1ccccc1)NC(=O)[C@@H](N)[C@@H](C)CC: 11
2) *OC(=O)[C@H](C)NC(=O)[C@H](CSC[C@@H](N)C(=O)O)NC(=O)[C@H](CC(C)C)NC(=O)[C@H](COC(C)(C)C)NC(=O)[C@@H](N)CC(C)C: 5
3) *OC(=O)[C@H](C)NC(=O)[C@H](CSC[C@@H](N)C(=O)O)NC(=O)[C@H](CC(C)C)NC(=O)[C@H](CSC(c1ccccc1)(c1ccccc1)c1ccccc1)NC(=O)[C@@H](N)CC(C)C: 15
4) *OC(=O)[C@H](C)NC(=O)[C@H](CSC[C@@H](N)C(=O)O)NC(=O)[C@H](CC(C)C)NC(=O)[C@H](C)NC(=O)[C@@H](N)CC(C)C: 3
